FYI, the data here is from patent US20250027068.

- subject of test: pooled human IgG
In this section we review reported Enzyme Activity Endpoint Assay (purified): Fc values for a set of proteins.
# answer = value followed by unit

Some entries whose results are on file:
PRT-654 (protein) MQITSVWTKGVTPLTPEQFRYNNEDVIHAPYLAHQGWYDITKAFDGKDNLLCGAATAGNMLHWWFDQNKTEIEAYLSKHPEKQKIIFNNQELFDLKAAIDTKDSQTNSQLFNYFRDKAFPNLSARQLGVMPDLVLDMFINGYYLNVFKTQSTDVNRPYQDKDKRGGIFDAVFTRGDQTTLLTARHDLKNKGLNDISTIIKQELTEGRALALSHTTGNVSYSHVINLWGADFNAEGNLEAIYVTDSDANASIGMKKYFVGINAHGHVAISAKKIEGENVGAQVLGLFTLSSGKDIWQKLSLEHHHHHH = 0 ng/µL
PRT-132 (protein) MRNATEAYAKEVPKQITSVWTKGVTPPTPEQFRYNNEDVIHAPYLAHQGWYDITKAFDGKDNLLCGAATAGNMLHWWFDQNKTEIEAYLSKHPEKQKIIFNNQELFDLKAAIDTKDSQTNSQLFNYFRDKAFPNLSARQLGVMPDLVLDMFINGYYLNVFKTQSTDVNRPYQDKDKRGGIFDAVFTRGDQTTLLTARHDLKNKTLNDISTIIKQELTEGRALALSHTYANVSISHVINLWGADFNAEGNLEAIYVTDSDANASIGMKKYFVGINAHGHVAISAKKIEGENIGAQVLGLFTLSSGKDIWQKLS = 219 ng/µL
PRT-61 (protein) MANQEIRYSEVTPYHVTSVWTKGVTPPANFTQGEDVFHAPYVANQGWYDINKTFNGKDDLLCGAATAGNMLHWWFDQNKEYIKRYLEEHPEKQKINFNGEQMFDVKEAIDTKNHQLDSKLFEYFKEKAFPYLSTKHLGVFPDHVLDMFINGYRLSLTNHGPTPVKEGSKDPRGGIFDAVFTRGDQSKLLTSRHDFKEKNLKEISDLIKKELTEGKALGLSHTYANVRINHVINLWGADFDSNGNLKAIYVTDSDSNASVGMKKYFVGVNSAGKVAISAKEIKEDNIGAQVLGLFTLSTGQDSWNQTN = 55 ng/µL

What the record says about PRT-238 (protein) MEVVEVWPYGQNPNGKTEILSQTEDSESLQRLRDIEDFQAEKKMQNVVYTKWLDGVDVKDHDFRKIVDGGIAYYATPLLNGRGFYDINKDFNRDSDLCAAAVAANMFHYWLDINRDNVDRFLRQNPEKHGIIELPDGQLKLSDFLNTYESDHGYRDKSKLFDYISNNFNGPVWTDKLLDNYINGYGYNYKYGRTIEDPTKNTSKINFFKEVFNEKILTNNHSIRNQNEFSVLLSEALYTGKAIGLSYGPAGLRHSLGHIISVWGADLDADGNVVAIYVTDSDDKKLTIGDERVGLKRYKISTDDENRLRLTAYEETHNTGGQIRGLWTLDTGKYAWADYFDKTEQTGTDQAEQLEHHHHHH : Enzyme Activity Endpoint Assay (purified): Fc is 81 ng/µL
